Assay: Part 3 relative bioavailability (tablet vs powder-in-capsule) with food effect: plasma PK, 10 mg
Assay type: in vivo, human
Conditions: human, plasma, oral, 10 mg, 10 mg Capsule (Fasted), Cohort 1, geometric mean
metric: Cmax (ng/mL)

| compound | value units | observed result |
| --- | --- | --- |
| CS(=O)(=O)N[C@H]1CCCN2C(=O)COc3ccccc3C3CCC(CC3)OCC12 (stereo partly shown) | ng/mL | 11.8 |

###

Assay: Part 3 relative bioavailability (tablet vs powder-in-capsule) with food effect: plasma PK, 10 mg
Type: in vivo, human
Settings: human, plasma, oral, 10 mg, 10 mg Tablet (Fasted), Cohort 2, N = 8

| compound | half-life |
| --- | --- |
| CS(=O)(=O)N[C@H]1CCCN2C(=O)COc3ccccc3C3CCC(CC3)OCC12 (stereo partly shown) | 9.22 h |
